Below, each entry is listed with its recorded AUC(0-inf).
assay_overview: AUC (0 to infinity) in Sprague-Dawley rat measured at 2 mg/kg, iv for 0.083 to 24 hrs by LC-MS/MS analysis
Assay type: ADME, organism-based
Set-up: time lower 0.083 hrs, dose 2 mg/kg, time upper 24 hrs, route iv
condition_details: in vivo
Give the number; ng·h/mL is assumed, so skip it.

> print(dat)
                              line.notation  measurement.type  recorded.value
1  C=CC(=O)N1CCC(c2cc3c(Oc4ccc(NC(=O)NC5CC5)c(Cl)c4)ccnc3cc2OC)CC1        AUC(0-inf)             572

Problem: Fill in the blank: the reported AUC(0-inf) of C=CC(=O)N1CCC(c2cc3c(Oc4ccc(NC(=O)NC5CC5)c(Cl)c4)ccnc3cc2OCC)CC1 is ____.
Solution: 506
